pIC50: −log10 of the molar value.
Assay read-out pIC50; system under study: rabbit intestinal sucrase (Oryctolagus cuniculus).
Sequence (P07768 whole entry): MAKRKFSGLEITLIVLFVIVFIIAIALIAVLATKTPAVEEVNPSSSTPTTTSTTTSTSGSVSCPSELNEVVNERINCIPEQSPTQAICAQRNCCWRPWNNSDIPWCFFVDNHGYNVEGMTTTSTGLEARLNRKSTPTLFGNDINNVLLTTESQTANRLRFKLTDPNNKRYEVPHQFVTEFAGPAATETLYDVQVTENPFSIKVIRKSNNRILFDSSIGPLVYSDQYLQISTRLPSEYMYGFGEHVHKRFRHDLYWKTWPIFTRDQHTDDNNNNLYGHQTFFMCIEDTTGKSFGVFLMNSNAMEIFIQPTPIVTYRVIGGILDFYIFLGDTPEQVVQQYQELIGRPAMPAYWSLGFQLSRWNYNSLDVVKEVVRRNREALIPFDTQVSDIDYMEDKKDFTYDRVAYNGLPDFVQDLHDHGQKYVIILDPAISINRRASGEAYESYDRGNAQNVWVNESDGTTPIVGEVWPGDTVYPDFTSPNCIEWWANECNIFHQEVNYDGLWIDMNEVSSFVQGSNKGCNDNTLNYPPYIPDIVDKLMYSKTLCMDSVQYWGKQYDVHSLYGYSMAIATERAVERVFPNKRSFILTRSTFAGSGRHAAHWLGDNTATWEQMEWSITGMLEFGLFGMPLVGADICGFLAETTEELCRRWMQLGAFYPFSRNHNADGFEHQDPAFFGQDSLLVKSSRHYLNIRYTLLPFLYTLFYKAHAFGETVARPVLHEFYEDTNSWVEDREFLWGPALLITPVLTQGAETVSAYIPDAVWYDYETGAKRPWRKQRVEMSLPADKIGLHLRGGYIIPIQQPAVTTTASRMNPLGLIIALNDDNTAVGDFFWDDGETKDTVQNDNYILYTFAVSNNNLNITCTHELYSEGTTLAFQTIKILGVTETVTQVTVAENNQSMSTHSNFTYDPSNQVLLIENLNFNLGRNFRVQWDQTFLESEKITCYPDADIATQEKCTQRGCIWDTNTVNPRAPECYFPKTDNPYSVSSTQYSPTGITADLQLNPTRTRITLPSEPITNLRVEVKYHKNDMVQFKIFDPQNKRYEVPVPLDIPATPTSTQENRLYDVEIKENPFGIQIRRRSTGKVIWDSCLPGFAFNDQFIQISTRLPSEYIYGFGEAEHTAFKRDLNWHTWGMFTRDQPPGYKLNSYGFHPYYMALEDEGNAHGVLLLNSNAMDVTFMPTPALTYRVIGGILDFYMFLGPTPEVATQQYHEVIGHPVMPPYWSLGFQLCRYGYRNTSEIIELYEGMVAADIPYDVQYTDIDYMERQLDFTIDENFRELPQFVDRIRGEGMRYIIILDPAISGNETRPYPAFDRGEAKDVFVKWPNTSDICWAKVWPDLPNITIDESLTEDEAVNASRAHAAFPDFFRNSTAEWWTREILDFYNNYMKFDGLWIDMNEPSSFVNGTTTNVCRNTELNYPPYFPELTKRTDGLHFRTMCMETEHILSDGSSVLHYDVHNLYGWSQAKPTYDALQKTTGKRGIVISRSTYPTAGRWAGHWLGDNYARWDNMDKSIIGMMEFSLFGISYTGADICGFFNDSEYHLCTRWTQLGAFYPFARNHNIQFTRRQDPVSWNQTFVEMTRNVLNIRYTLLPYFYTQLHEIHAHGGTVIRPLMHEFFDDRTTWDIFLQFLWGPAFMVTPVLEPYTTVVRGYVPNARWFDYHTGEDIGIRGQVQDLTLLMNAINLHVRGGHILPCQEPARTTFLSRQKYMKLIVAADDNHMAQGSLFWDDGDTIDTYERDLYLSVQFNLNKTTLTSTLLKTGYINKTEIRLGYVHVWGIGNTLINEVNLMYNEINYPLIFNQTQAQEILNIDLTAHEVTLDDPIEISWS

Enquiry: Report pIC50 for O=C(O)[C@H]1NC[C@H](O)[C@@H](O)[C@@H]1O please.
Return: < 3.10

Enquiry: Which measured pIC50 value corresponds to O=C(O)CN1[C@H](CO)[C@@H](O)[C@H](O)[C@H]1CO ?
Return: < 3.10

Enquiry: Give its pIC50 value. Item: CCCCOC(=O)[C@@H]1[C@@H](O)[C@H](O)[C@@H](O)CN1CCCC
Return: < 3.10

====

- test.system: Amyloglucosidase Aspergillus niger (Aspergillus niger, UniProt P69328)
- Construct: purchased Sigma
- Sequence (P69328 25-640): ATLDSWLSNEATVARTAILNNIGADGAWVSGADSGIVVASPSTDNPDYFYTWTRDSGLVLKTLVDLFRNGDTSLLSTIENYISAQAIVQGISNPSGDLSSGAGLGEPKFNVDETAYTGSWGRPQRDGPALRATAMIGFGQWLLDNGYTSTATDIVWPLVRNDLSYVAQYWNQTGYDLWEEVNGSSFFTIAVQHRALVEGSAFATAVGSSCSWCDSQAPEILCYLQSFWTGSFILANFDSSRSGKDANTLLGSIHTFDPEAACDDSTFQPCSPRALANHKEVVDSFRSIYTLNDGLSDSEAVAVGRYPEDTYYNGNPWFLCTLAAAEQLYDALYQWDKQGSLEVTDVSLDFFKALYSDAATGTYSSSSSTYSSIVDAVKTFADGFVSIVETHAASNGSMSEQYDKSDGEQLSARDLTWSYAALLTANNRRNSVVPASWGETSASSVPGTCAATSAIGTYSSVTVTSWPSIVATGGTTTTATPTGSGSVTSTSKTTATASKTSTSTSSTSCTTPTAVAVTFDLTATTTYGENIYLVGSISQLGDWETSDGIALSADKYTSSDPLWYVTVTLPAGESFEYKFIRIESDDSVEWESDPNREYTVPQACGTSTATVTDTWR
- experimental.protocol: Glycosidase inhibition: Amyloglucosidase Aspergillus niger
- Assay type: biochemical
- applied.conditions: compounds tested at 0.8 mM
Provide the reported inhibition at 800 µM of each item.

Enquiry: Which inhibition at 800 µM value belongs to O=C(O)CN1C[C@@H](O)[C@H](O)[C@H]1CO ?
Return: < 50%

Enquiry: Name the reported inhibition at 800 µM value associated with the molecule O=C(O)CCN1C[C@H](O)[C@@H](O)[C@H](O)[C@H]1CO
Return: 53%

Enquiry: Please report the recorded inhibition at 800 µM for CCCCOC(=O)[C@@H]1[C@@H](O)[C@H](O)[C@@H](O)CN1CCCC .
Return: < 50%

====

I'd be grateful if you could share measured pIC50 for these entries.
- test.system: rabbit intestinal maltase
- experimental.protocol: Rabbit disaccharidase inhibition assay: maltase
- applied.conditions: NI: no inhibition at 0.8 mM
pIC50: −log10 of the molar value.

Enquiry: Give recorded pIC50 with rabbit intestinal maltase for the following compound: CCCCOC(=O)[C@@H]1[C@@H](O)[C@H](O)[C@@H](O)CN1CCCC
Return: < 3.10

Enquiry: Param readout= pIC50; system= rabbit intestinal maltase; entry= O=C(O)CN1[C@H](CO)[C@@H](O)[C@H](O)[C@H]1CO ; returns value.
Return: < 3.10

Enquiry: What reported pIC50 corresponds to O=C(O)[C@H]1NC[C@H](O)[C@@H](O)[C@@H]1O on rabbit intestinal maltase?
Return: < 3.10

====

- test.system: α-D-glucosidase (Rice) (Oryza sativa subsp. japonica, UniProt Q653V7)
- Construct: purchased Sigma
- Sequence (Q653V7 34-885): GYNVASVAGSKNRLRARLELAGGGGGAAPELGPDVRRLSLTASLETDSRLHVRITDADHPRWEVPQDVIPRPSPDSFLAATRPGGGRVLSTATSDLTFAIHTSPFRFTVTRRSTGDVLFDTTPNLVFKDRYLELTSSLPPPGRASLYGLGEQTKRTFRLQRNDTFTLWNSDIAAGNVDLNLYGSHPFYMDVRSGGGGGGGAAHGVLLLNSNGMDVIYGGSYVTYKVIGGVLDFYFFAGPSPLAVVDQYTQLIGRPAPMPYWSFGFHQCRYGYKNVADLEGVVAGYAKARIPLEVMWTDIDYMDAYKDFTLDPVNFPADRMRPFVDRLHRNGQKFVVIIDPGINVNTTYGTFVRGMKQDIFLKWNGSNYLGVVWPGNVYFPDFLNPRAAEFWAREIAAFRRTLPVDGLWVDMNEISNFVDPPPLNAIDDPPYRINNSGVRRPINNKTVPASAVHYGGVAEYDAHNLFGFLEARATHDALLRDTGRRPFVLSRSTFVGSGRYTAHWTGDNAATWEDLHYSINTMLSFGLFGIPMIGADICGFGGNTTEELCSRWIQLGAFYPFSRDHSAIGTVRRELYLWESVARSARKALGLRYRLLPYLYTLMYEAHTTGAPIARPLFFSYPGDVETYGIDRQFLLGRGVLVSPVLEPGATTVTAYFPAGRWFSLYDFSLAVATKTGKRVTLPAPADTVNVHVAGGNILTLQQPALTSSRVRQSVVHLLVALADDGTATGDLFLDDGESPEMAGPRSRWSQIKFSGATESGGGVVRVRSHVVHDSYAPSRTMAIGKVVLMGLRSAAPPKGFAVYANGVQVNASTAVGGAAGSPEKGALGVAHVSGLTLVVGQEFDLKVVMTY
- experimental.protocol: Glycosidase inhibition: α-D-glucosidase (Rice)
- Format: biochemical
- applied.conditions: compounds tested at 0.8 mM
parameter.measured: inhibition at 800 µM

Enquiry: Dear colleague, I am looking for the recorded inhibition at 800 µM of the following compound: O=C(O)CN1C[C@@H](O)[C@H](O)[C@H]1CO [Compound T4]
Return: < 50%

Enquiry: Consider the compound CCCCOC(=O)[C@@H]1[C@@H](O)[C@H](O)[C@@H](O)CN1CCCC [Compound T2] and give its measured inhibition at 800 µM.
Return: < 50%

Enquiry: What does the data say about its inhibition at 800 µM? Entry: O=C(O)CN1[C@H](CO)[C@@H](O)[C@H](O)[C@H]1CO [Compound S2]
Return: < 50%
